Assay: Plasma Stability
Assay type: in vitro ADME, human
Details: % remaining @ 1 h
READOUT: human Plasma stability (% @ 1 h)
Express the result in % @ 1 h but write the number alone.

Solved cases below.
[
  {
    "COMPOUND": "CC(C)OCCn1c(=S)[nH]c(=O)c2c1ccn2COC(=O)[C@H](N)C(C)C [Example 300]",
    "UNIT_STRING": "% @ 1 h",
    "human Plasma stability": 2
  },
  {
    "COMPOUND": "CC(C)OCCn1c(=S)n(COC(=O)[C@H](Cc2ccccc2)NC(=O)OC(C)(C)C)c(=O)c2c1ccn2COC(=O)[C@H](Cc1ccccc1)NC(=O)OC(C)(C)C [Example 304]",
    "UNIT_STRING": "% @ 1 h",
    "human Plasma stability": 99
  },
  {
    "COMPOUND": "CC(C)OCCn1c(SCOC(=O)[C@H](Cc2ccccc2)NC(=O)OC(C)(C)C)nc(=O)c2c1ccn2COC(=O)[C@H](Cc1ccccc1)NC(=O)OC(C)(C)C [Example 303]",
    "UNIT_STRING": "% @ 1 h",
    "human Plasma stability": 28
  }
]

Next item in the queue.
Prompt: Specify reported human Plasma stability for the compound shown: CC(C)OCCn1c(SCOC(=O)[C@H](NC(=O)OC(C)(C)C)C(C)C)nc(=O)c2c1ccn2COC(=O)[C@H](NC(=O)OC(C)(C)C)C(C)C [Example 299]
Response: 94

These measurements were taken from patent US20240067651A1.
